ATTRIBUTE MEASURED: melting point

Known results for compounds:
>>> assay_result("Cc1nc(N)c2nc(CO)n(NCc3ccccc3)c2c1C")
"> 250 °C"
>>> assay_result("CCOCc1nc2c(N)nc(C)c(C)c2n1NC1CCN(S(C)(=O)=O)CC1")
"127 to 131 °C"
>>> assay_result("CCOCc1nc2c(N)nc3cccnc3c2n1NC(C)C")
"150 to 152 °C"
>>> assay_result("CCOCc1nc2c(N)nc(C)cc2n1NC(C)C")
"139 to 141 °C"
>>> assay_result("CCCCc1nc2c(N)nc(C)c(C)c2n1NC1CCCCC1")
"160 to 162 °C"

Provide each entry's melting point from the list below.
1. CCOCc1nc2c(N)nc(C)c(C)c2n1NCCCNC(=O)C1CCCCC1
2. Cc1nc(N)c2ncn(NC3CCCCC3)c2c1C
3. CCOCc1nc2c(N)nc3cccnc3c2n1NCc1ccccc1
4. CCCc1nc2c(N)nc(C)c(C)c2n1NC1CCCCC1
5. CCc1nc2c(N)nc3cccnc3c2n1NC(C)C
6. Cc1nc(N)c2nc(CO)n(NC3CCOCC3)c2c1C
7. CCc1nc2c(N)nc3cccnc3c2n1NCCCNS(C)(=O)=O
8. CC(C)Nn1c(CO)nc2c(N)nc3cccnc3c21

OUTPUT:
1. 166 to 168 °C
2. 259 to 261 °C
3. 169 to 171 °C
4. 177 to 179 °C
5. 212 to 213 °C
6. > 250 °C
7. 176 to 178 °C
8. 242 to 243 °C
